target: PPARδ receptor (Homo sapiens); test: Binding and cotransfection studies, PPARδ ("binding assay")
Sequence (Q03181 whole entry): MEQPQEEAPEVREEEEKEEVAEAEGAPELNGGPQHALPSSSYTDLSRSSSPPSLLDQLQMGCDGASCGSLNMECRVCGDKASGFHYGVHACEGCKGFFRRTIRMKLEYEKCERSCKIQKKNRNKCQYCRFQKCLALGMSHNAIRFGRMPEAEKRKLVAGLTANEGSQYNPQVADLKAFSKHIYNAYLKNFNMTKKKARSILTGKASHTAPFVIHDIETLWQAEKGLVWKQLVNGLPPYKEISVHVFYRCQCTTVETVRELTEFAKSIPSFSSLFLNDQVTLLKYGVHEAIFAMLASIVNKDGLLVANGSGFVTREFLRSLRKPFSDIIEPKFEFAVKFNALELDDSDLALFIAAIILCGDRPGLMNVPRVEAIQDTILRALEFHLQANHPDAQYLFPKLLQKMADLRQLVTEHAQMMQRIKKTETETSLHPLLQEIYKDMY
measurementName: EC50 (nM)
Field format: number, assumed nM, no unit text.

The examples below pair each entry with its known result.
COCCn1c(COc2ccc(OC(C)(C)C(=O)O)c(C)c2)nn(-c2ccc(C(F)(F)F)cc2)c1=O [Example 2]: 297
CC(C)(Oc1ccc(OC(CCCC(F)(F)F)c2nn(-c3ccc(C(F)(F)F)cc3)c(=O)n2-c2c(F)cccc2F)cc1)C(=O)O (racemic) [Example 57]: 46.4
Cc1cc(OCc2nn(-c3ccc(C(F)(F)F)cc3)c(=O)n2-c2ccccc2F)ccc1OC(C)(C)C(=O)O [Example 13]: 14

According to the records, this molecule Cc1cc(OCc2nn(-c3ccc(C(F)(F)F)cc3)c(=O)n2C(C)C)ccc1OC(C)(C)C(=O)O [Example 1] displays EC50 of 63.4
